- procedure-summary: AUClast in cynomolgus monkey at 1 mg/kg, iv measured up to 24 hrs by LC-MS/MS analysis
- Type: ADME, organism-based, Macaca fascicularis
- measurement-setup: in vivo
reported-metric: AUC(0-t) at 24 h
Record the result as a number with its unit.

Need AUC(0-t) at 24 h of Cn1c(=O)n(C2CCC(=O)NC2=O)c2cccc(C#CCO[C@H]3CC[C@H](CN4CCC5(CC4)Cc4cc(NC(=O)c6coc7cccnc67)c(N6CCC(CO)CC6)cc4O5)CC3)c21 (stereo partly specified) , thanks.
1820 ng·h/mL

###

- target-desc: UniProt P11712
- Sequence (P11712 whole entry): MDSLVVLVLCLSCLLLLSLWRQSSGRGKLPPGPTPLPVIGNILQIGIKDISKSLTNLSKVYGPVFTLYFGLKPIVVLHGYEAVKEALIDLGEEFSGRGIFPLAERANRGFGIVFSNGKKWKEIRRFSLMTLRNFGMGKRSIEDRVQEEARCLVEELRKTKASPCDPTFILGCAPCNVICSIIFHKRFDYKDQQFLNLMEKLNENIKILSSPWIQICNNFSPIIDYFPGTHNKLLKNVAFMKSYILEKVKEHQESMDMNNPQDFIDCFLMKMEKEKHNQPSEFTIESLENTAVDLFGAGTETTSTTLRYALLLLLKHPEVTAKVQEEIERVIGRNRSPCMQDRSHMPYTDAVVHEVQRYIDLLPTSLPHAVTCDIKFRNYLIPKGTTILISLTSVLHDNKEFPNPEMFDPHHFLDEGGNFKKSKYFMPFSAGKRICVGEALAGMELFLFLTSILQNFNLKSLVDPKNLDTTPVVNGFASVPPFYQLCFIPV
- procedure-summary: Inhibition of CYP2C9 in human liver microsome using diclofenac as substrate at 10 uM preincubated for 5 mins followed by NADPH addition and measured after 10 mins by LC-MS/MS analysis relative to control
- Format: ADME
- measurement-setup: human liver microsomes, probe diclofenac, time 15 min
reported-metric: inhibition at 10 min, 10 µM (%)
Give the number; % is assumed, so skip it.

Give UniProt P11712 inhibition at 10 min, 10 µM for Cn1c(=O)n(C2CCC(=O)NC2=O)c2cccc(C#CCO[C@H]3CC[C@H](CN4CCC5(CC4)Cc4cc(NC(=O)c6coc7cccnc67)c(N6CCC(CO)CC6)cc4O5)CC3)c21 (stereo partly specified)
13.9
